Reference source for all entries: paper PMC2192565

# SYSTEM_TESTED: HLA-DRB1*0401 (Homo sapiens, UniProt P01903+P01911, A100K/A169T/F76Y/I96L/K127E/L162R/M171V/N62H/P40V/Q125Y/R42H/S133A/S149N/S66Y/V115G/V209L/W38E)
# ASSAY_METHOD_TEXT: biochemical
# Format: binding
pIC50: −log10 of the molar value. Where no end group is shown, it is not given here.
Is pIC50 at least 7? Then 1.0. If not, 0.0.

>>> category_label("QNFLLSNAPLGPQFP [I58 F]")
1.0

Does the sequence QNILLSNQPLGPQFP [A63 Q] have recorded pIC50 that is 7 or more?
0.0

Does the sequence DFSYLQDSDPDSFQD [Y449 F] have recorded pIC50 that is 7 or more?
0.0

Does the sequence QNILLSNVPLGPQFP [A63 V] have recorded pIC50 that is 7 or more?
1.0

Does the sequence DQSYLQDSDPDSFQD [Y449 Q] have recorded pIC50 that is 7 or more?
0.0

Does the sequence QNILLSNAQLGPQFP [P64 Q] have recorded pIC50 that is 7 or more?
0.0

Does the sequence QNQLLSNAPLGPQFP [I58 Q] have recorded pIC50 that is 7 or more?
0.0

Does the sequence QNILLSNAPQGPQFP [L65 Q] have recorded pIC50 that is 7 or more?
0.0
